Test system: Col1a1-Luci-reporter luciferase in LX-2 cells
Assay: HSCs activation model based on Col1a1-Luci-reporter luciferase in transfected LX-2 cells (Duo-Lite luciferase assay; CI by CompuSyn)
Assay type: cell-based, human
Conditions: named drug combined with silybin, mixed ratio 1:1, 12 hours, CI<0.90 synergistic, 0.90<CI<1.10 additive

[
  {
    "compound": "COc1ccccc1OCCNCC(O)COc1cccc2[nH]c3ccccc3c12 (stereo not shown)",
    "CI": 0.11
  },
  {
    "compound": "CCCCC(=O)N(Cc1ccc(-c2ccccc2-c2nnn[nH]2)cc1)[C@H](C(=O)O)C(C)C",
    "CI": 0.47
  },
  {
    "compound": "CCCC1O[C@@H]2C[C@H]3[C@@H]4CCC5=CC(=O)C=C[C@]5(C)[C@H]4[C@@H](O)C[C@]3(C)[C@]2(C(=O)CO)O1 (stereo partly shown) [budesonide]",
    "CI": 0.91
  },
  {
    "compound": "CCOC(=O)C1=C(COCCN)NC(C)=C(C(=O)OC)C1c1ccccc1Cl (stereo not shown)",
    "CI": 0.62
  },
  {
    "compound": "COCCOC(=O)C1=C(C)NC(C)=C(C(=O)OC/C=C/c2ccccc2)C1c1cccc([N+](=O)[O-])c1 (stereo not shown)",
    "CI": 0.79
  },
  {
    "compound": "CCC(=O)O[C@]1(C(=O)CCl)[C@@H](C)C[C@H]2[C@@H]3CCC4=CC(=O)C=C[C@]4(C)[C@@]3(F)[C@@H](O)C[C@@]21C [clobetasol propionate]",
    "CI": 0.86
  },
  {
    "compound": "CCOc1ccccc1OCCN[C@H](C)Cc1ccc(OC)c(S(N)(=O)=O)c1",
    "CI": 0.50
  }
]

---

Tested on: Col1a1-Luci-reporter luciferase in LX-2 cells
Test: HSCs activation model based on Col1a1-Luci-reporter luciferase in transfected LX-2 cells (Duo-Lite luciferase assay; CI by CompuSyn)
Format: cell-based, human
Settings: named drug combined with silybin, mixed ratio 1:1, 12 hours, CI<0.90 synergistic, 0.90<CI<1.10 additive
Below, each entry is listed alongside its reported CI.
endpoint-name: CI

[
  {
    "compound": "COC(=O)C1=C(C)NC(C)=C(C(=O)OCCN2CCN(C(c3ccccc3)c3ccccc3)CC2)C1c1cccc([N+](=O)[O-])c1 (stereo not shown) [manidipine]",
    "target-of-assay": "Col1a1-Luci-reporter luciferase in LX-2 cells",
    "measured-value": 0.54
  },
  {
    "compound": "COC(=O)C1=C(C)NC(C)=C(C(=O)OCCN(C)Cc2ccccc2)C1c1cccc([N+](=O)[O-])c1 (stereo not shown) [nicardipine]",
    "target-of-assay": "Col1a1-Luci-reporter luciferase in LX-2 cells",
    "measured-value": 0.31
  },
  {
    "compound": "OC[C@@H](O)[C@@H](O)[C@H](O)[C@H](O)CO [D-mannitol]",
    "target-of-assay": "Col1a1-Luci-reporter luciferase in LX-2 cells",
    "measured-value": 0.66
  },
  {
    "compound": "O=C(O)COC(=O)Cc1ccccc1Nc1c(Cl)cccc1Cl [aceclofenac]",
    "target-of-assay": "Col1a1-Luci-reporter luciferase in LX-2 cells",
    "measured-value": 0.46
  }
]
